Conditions: in ethanol, 283.15 K
Measured Parameter: solubility (mole fraction)
Please give only the number in your answer, with no unit.

What value of solubility (mole fraction) has been recorded for this entry: "CC(=O)N1CCN(c2ccc(O)cc2)CC1" 0.00218

---

Conditions: in 2-propoxyethanol, 293.15 K
Measured Parameter: solubility (mole fraction)

Given "CC(=O)N1CCN(c2ccc(O)cc2)CC1" , state its recorded solubility (mole fraction). 0.00574

---

Conditions: in methanol, 313.15 K
Measured Parameter: solubility (mole fraction)
Answer with a bare number; do not write a unit.

Quick check: solubility (mole fraction) of "CC(=O)N1CCN(c2ccc(O)cc2)CC1" ? 0.00806

---

Conditions: in methanol, 303.15 K
Measured Parameter: solubility (mole fraction)
Form: value (number only, do not type unit).

Using the record for "CC(=O)N1CCN(c2ccc(O)cc2)CC1" , report its solubility (mole fraction). 0.00581

---

Settings: in isobutanol, 283.15 K
Measured Parameter: solubility (mole fraction)
Kindly provide the number alone.

So what does the record say about solubility (mole fraction) for "CC(=O)N1CCN(c2ccc(O)cc2)CC1" ? 0.00108

---

Settings: in 2-propoxyethanol, 303.15 K
Measured Parameter: solubility (mole fraction)
Please respond with just the number, no unit label.

Form field: reported solubility (mole fraction) of "CC(=O)N1CCN(c2ccc(O)cc2)CC1" 0.00813

---

Settings: in 2-propoxyethanol, 313.15 K
Measured Parameter: solubility (mole fraction)
When you answer, write just the number.

Reported solubility (mole fraction) for "CC(=O)N1CCN(c2ccc(O)cc2)CC1" : what is it? 0.011

---

Conditions: in 2-propoxyethanol, 298.15 K
Measured Parameter: solubility (mole fraction)
// return just the number, without any unit appended

Sample "CC(=O)N1CCN(c2ccc(O)cc2)CC1" — what was its solubility (mole fraction)? 0.00686

---

Details: in 2-butoxyethanol, 293.15 K
Measured Parameter: solubility (mole fraction)
Reply with just the number.

Entry "CC(=O)N1CCN(c2ccc(O)cc2)CC1" has what solubility (mole fraction)? 0.00457

---

Settings: in acetonitrile, 288.15 K
Measured Parameter: solubility (mole fraction)
Number only, please.

Endpoint output: solubility (mole fraction) of "CC(=O)N1CCN(c2ccc(O)cc2)CC1" . Value? 0.00124

---

Settings: in 2-methoxyethanol, 283.15 K
Measured Parameter: solubility (mole fraction)
Please give only the number in your answer, with no unit.

Tell me the measured solubility (mole fraction) of "CC(=O)N1CCN(c2ccc(O)cc2)CC1" , please. 0.00715

---

Conditions: in 2-propoxyethanol, 308.15 K
Measured Parameter: solubility (mole fraction)
Write the value as a bare number.

What measured solubility (mole fraction) goes with "CC(=O)N1CCN(c2ccc(O)cc2)CC1" ? 0.00951

---

Settings: in acetonitrile, 293.15 K
Measured Parameter: solubility (mole fraction)
Write the number on its own, no unit after it.

Which measured solubility (mole fraction) value corresponds to "CC(=O)N1CCN(c2ccc(O)cc2)CC1" ? 0.0015

---

Settings: in n-propanol, 318.15 K
Measured Parameter: solubility (mole fraction)
Respond numerically, and do not add a unit to the figure.

Entry under review: "CC(=O)N1CCN(c2ccc(O)cc2)CC1" . Reported solubility (mole fraction)? 0.00683

---

Settings: in methanol, 308.15 K
Measured Parameter: solubility (mole fraction)
Reply: number alone, nothing else.

Endpoint output: solubility (mole fraction) of "CC(=O)N1CCN(c2ccc(O)cc2)CC1" . Value? 0.00679
